Test system: F. moniliform
Assay: Antimicrobial screening, hole-plate and filter disc
Assay type: cell-based, Fusarium moniliform
Experimental: All investigations were executed at the Biology department, Faculty of Science, Benha University, Egypt. The antimicrobial activities of all the synthesized molecules were determined in vitro, using the hole-plate and filter disc methodologies. The investigated compounds were dissolved in 10% acetone (v/v). […]
Assay endpoint: Mic (minimum inhibitory concentration)

INSERT INTO results (compound, result_value) VALUES
  ('N#CC12C(=N)NC(=O)N=C1N=C(CN1C(=O)c3c(Br)c(Br)c(Br)c(Br)c3C1=O)OC2c1ccccc1 (stereo not drawn)', 250),
  ('N#CC12C(=O)NC(=S)N=C1N=C(CN1C(=O)c3c(Br)c(Br)c(Br)c(Br)c3C1=O)OC2c1ccccc1 (stereo not drawn)', 125),
  ('N#CC12C(=N)NC(=S)N=C1N=C(CN1C(=O)c3c(Br)c(Br)c(Br)c(Br)c3C1=O)OC2c1ccccc1 (stereo not drawn)', 125),
  ('N#CC12C(=N)NN=C1N=C(CN1C(=O)c3c(Br)c(Br)c(Br)c(Br)c3C1=O)OC2c1ccccc1 (stereo not drawn)', 125),
  ('N#CC12C(=O)NN=C1N=C(CN1C(=O)c3c(Br)c(Br)c(Br)c(Br)c3C1=O)OC2c1ccccc1 (stereo not drawn)', 250),
  ('N#CC12C(=O)NC(=O)N=C1N=C(CN1C(=O)c3c(Br)c(Br)c(Br)c(Br)c3C1=O)OC2c1ccccc1 (stereo not drawn)', 125);
